System: gastric secretion (HCl)
ASSAY COMMENT: Inhibition of gastric secretion (HCl) in the Shay rat over 4 h
Type: in vivo
DETAILS: Rattus norvegicus, po; rats, perorally; dose reducing HCl secretion (4 h) by 50% vs control
Binarize ED50 at 1 mg/kg; below is yes, at or above is no.

QUERY: # TODO verify ED50 < 1 mg/kg strictly for this molecule: COc1ccnc(CSc2nc3cc4c(cc3[nH]2)OC(F)(F)C(F)O4)c1 (stereo not drawn)
RESULT: no

----------
Tested on: gastric secretion (HCl)
ASSAY COMMENT: Inhibition of gastric secretion (HCl) in the Shay rat over 4 h
Assay type: in vivo
DETAILS: Rattus norvegicus, po; rats, perorally; dose reducing HCl secretion (4 h) by 50% vs control
Binarize ED50 at 0.9 mg/kg; below is class 1, at or above is class 0.

Below, 4 compounds whose answers are already recorded.
COc1ccnc(C[S+]([O-])c2nc3cc4c(cc3[nH]2)OC(F)C(F)(F)O4)c1C (centres unmarked) [Serial No. 5] ... class 1
COc1c(C)cnc(C[S+]([O-])c2nc3cc4c(cc3[nH]2)OC(F)C(F)(F)O4)c1C (centres unmarked) [Serial No. 9] ... class 0
COc1ccnc(CSc2nc3cc4c(cc3[nH]2)OC(F)(F)O4)c1C [Serial No. 7] ... class 0
COc1ccnc(CSc2nc3cc4c(cc3[nH]2)OCCO4)c1 [Serial No. C, reference compound] ... class 0

QUERY: # TODO verify ED50 < 0.9 mg/kg strictly for this compound: COc1ccnc(CSc2nc3cc4c(cc3[nH]2)OC(F)C(F)(F)O4)c1C (centres unmarked) [Serial No. 6]
RESULT: class 0

QUERY: # TODO verify ED50 < 0.9 mg/kg strictly for this compound: COc1ccnc(C[S+]([O-])c2nc3cc4c(cc3[nH]2)OCCO4)c1 (centres unmarked) [Serial No. D, reference compound]
RESULT: class 0

QUERY: # TODO verify ED50 < 0.9 mg/kg strictly for this compound: COc1ccnc(C[S+]([O-])c2nc3cc4c(cc3[nH]2)OC(F)C(F)(F)O4)c1 (centres unmarked) [Serial No. 3]
RESULT: class 0

QUERY: # TODO verify ED50 < 0.9 mg/kg strictly for this compound: COc1ccnc(C[S+]([O-])c2nc3cc4c(cc3[nH]2)OC(F)(F)O4)c1C (centres unmarked) [Serial No. 2]
RESULT: class 1

QUERY: # TODO verify ED50 < 0.9 mg/kg strictly for this compound: COc1cc(C[S+]([O-])c2nc3cc4c(cc3[nH]2)OC(F)(F)O4)ncc1C (centres unmarked) [Serial No. 8]
RESULT: class 0

QUERY: # TODO verify ED50 < 0.9 mg/kg strictly for this compound: COc1ccnc(C[S+]([O-])c2nc3cc4c(cc3[nH]2)OC(F)(F)C(F)(Cl)O4)c1C (centres unmarked) [Serial No. 10]
RESULT: class 1
